- Experimental System: hMPV F protein of hMPV CAN/97-83 (genotype A) (human metapneumovirus, UniProt Q6WB98 19-539)
- Sequence (Q6WB98 19-539): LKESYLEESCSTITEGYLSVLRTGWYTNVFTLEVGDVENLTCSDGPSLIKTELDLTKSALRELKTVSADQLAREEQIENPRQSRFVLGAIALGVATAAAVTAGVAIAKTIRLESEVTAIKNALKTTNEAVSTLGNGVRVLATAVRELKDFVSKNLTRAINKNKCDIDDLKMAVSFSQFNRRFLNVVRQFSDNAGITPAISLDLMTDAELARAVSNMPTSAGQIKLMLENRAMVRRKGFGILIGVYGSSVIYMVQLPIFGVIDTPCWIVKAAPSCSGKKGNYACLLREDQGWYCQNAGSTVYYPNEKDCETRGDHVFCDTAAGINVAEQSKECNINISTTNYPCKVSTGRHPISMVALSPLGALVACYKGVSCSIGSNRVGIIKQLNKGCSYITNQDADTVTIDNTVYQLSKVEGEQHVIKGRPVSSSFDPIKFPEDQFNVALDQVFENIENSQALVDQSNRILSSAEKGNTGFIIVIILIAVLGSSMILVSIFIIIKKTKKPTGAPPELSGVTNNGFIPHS
- Assay Summary: cell-based or functional assay
Endpoint: fold lower neutralization IC50 than against hMPV TN/93-32

The measured fold lower neutralization IC50 than against hMPV TN/93-32 associated with MPV485 (antibody, V domains shown) V domain 1: EVQLQEPGPGLVKPSETLSLTCTVSGGSISSTNSFWGWVRQPPGKGLEWIGSIYYSGTTYYNSSLKSRVTISVDTSKNQFSLRLSSVTAADTAVYYCARQGLTSSWYDGSGLDVWG V domain 2: SYELTQPPSVSVSPGQTASITCSGDKLGNKYACWYQQRPGQSPVLVIYQDTKRPSGIPERFSGSNSGNTATLTISGTQAMDEADYYCQAWDSNTVVFGGGTKLTVL reads ≥ 20 fold
